Tested on: OVCAR-8
Assay: NCI tumour cell line growth inhibition, 48 h
Calls of active or inactive are those of the source. Cut-off read from the data, not from the text of the source: active = GI50 up to about 1.1 µM and inactive = higher.
Would you mind telling me the reported GI50 of each entry?

Oc1ccc(/C=C\c2nnc(/C=C\c3ccc(O)c(O)c3)s2)cc1O    4.56 µM (inactive)
C=C1C2CC(OC(C)=O)C3(C)C(c4ccoc4)OC(=O)[C@@H](O)[C@]13OC1C[C@H](OC(C)=O)C(C)(C)[C@H](CC(=O)OC)[C@]12C (stereo partly drawn)    > 100 µM (inactive)

Quick request: GI50 for each listed item, please.
1. [N-]=[N+]=NC1(Cc2ccccc2)C(=O)Nc2ccccc2C1=O (stereo not drawn)
2. Cc1nc(Nc2nnc(-c3cc([N+](=O)[O-])cc([N+](=O)[O-])c3C)o2)sc1C(=O)CC(=O)Cc1nc2ccc(Cl)cc2nc1O
3. O=S(=O)(O)c1cc(S(=O)(=O)O)c2c(/N=N/c3ccc(S(=O)(=O)O)c4ccccc34)c(O)ccc2c1
4. Cc1nc(N)sc1C(=O)/C=C/c1ccc([N+](=O)[O-])cc1
5. COC[C@H]1OC(=O)c2coc3c2[C@@]1(C)C1=C(C3=O)[C@@H]2CCC(=O)[C@@]2(C)C[C@H]1OC(C)=O
6. COc1ccc(-c2cc(O)c3cc(C)cnc3n2)cc1

RESULT:
1. > 100 µM (inactive)
2. > 100 µM (inactive)
3. > 100 µM (inactive)
4. > 100 µM (inactive)
5. 25 µM (inactive)
6. 4.57 µM (inactive)
